System: HepG2
procedure summary: cytotoxicity call (relative viability < 0.9)
run parameters: 10 µM
Hit rate of the full screen: of about 39,000 compounds, about 3,300 (8.5%) were called active. Many of the other results were omitted from the sample, so actives are more common in it than they were.
Answer with one of the outcomes given here: active, inactive

Test call, this molecule: `CCN(CC)CCOc1ccc(C(=C(Cl)c2ccccc2)c2ccccc2)cc1.O=C(O)CC(O)(CC(=O)O)C(=O)O`
active

Please share the test call associated with `C[C@@H]1CN([C@H](C)CO)C(=O)Cc2cc(NC(=O)CCC(F)(F)F)ccc2O[C@H]1CN(C)Cc1ccc(C(=O)Nc2ccccc2N)cc1` .
inactive

Please share the test call associated with `O=C(O)CC(O)(CC(=O)O)C(=O)O` .
inactive

Entry `CCN(CC)CCOCCOC(=O)C(CC)(CC)c1ccccc1.O=C(O)CC(O)(CC(=O)O)C(=O)O` : call = ?
inactive

Per the assay record, what outcome was assigned to `CCC(=C(c1ccccc1)c1ccc(OCCN(C)C)cc1)c1ccccc1.O=C(O)CC(O)(CC(=O)O)C(=O)O` ?
inactive

How did this test come out for `C[C@@H]1CN([C@H](C)CO)C(=O)c2cccc(NS(=O)(=O)c3ccccc3)c2O[C@@H]1CN(C)S(=O)(=O)c1cccs1` ?
inactive

Record request — test call for `C[C@H]1CN([C@@H](C)CO)C(=O)Cc2cc(NC(=O)Nc3ccc(C(F)(F)F)cc3)ccc2O[C@H]1CN(C)Cc1ccc(C(=O)Nc2ccccc2N)cc1`
active

Short answer needed: outcome of this test for `CCC(=O)n1ccc(C(=O)N2CCOCC2)n1` ?
inactive

Hey, what did the test say about `O=C(O)c1ccc(OC[C@@H](O)CO[C@H](COc2ccc(C(=O)O)cc2)Cn2c3ccccc3c3ccccc32)cc1` ?
inactive

Returns: the outcome recorded for `C[C@@H]1CN([C@H](C)CO)C(=O)Cc2cc(NC(=O)Nc3ccc(C(F)(F)F)cc3)ccc2O[C@@H]1CN(C)Cc1ccc(C(=O)Nc2ccccc2N)cc1` in this assay.
active

Dear colleague, could you share the recorded outcome for `C[C@@H]1CN([C@@H](C)CO)C(=O)Cc2cc(NC(=O)Nc3ccccc3)ccc2O[C@@H]1CN(C)Cc1ccc(C(=O)Nc2ccccc2N)cc1` when you have a moment?
inactive

Hi, sorry to bother you, what did the test record for `C[C@H]1CCCCO[C@H](CN(C)Cc2ccc(C(=O)O)cc2)[C@@H](C)CN([C@@H](C)CO)C(=O)c2cc(NS(=O)(=O)c3ccc(F)cc3)ccc2O1` ?
inactive

Field: outcome | Entry: `C[C@@H]1CN([C@H](C)CO)C(=O)c2cccc(NC(=O)c3cnccn3)c2O[C@@H]1CN(C)Cc1ccc(C(=O)O)cc1`
inactive

So what was the verdict on `C[C@H]1CN([C@@H](C)CO)C(=O)c2cc(NS(=O)(=O)c3ccc(F)cc3)ccc2O[C@@H]1CN(C)S(=O)(=O)c1cn(C)cn1` in this test?
inactive

Would you mind telling me which call this test gave `C[C@@H]1CN([C@@H](C)CO)C(=O)c2cccc(NC(=O)C3CCOCC3)c2O[C@H]1CN(C)S(=O)(=O)c1cn(C)cn1` ?
inactive

Lab log entry: `C[C@H]1CN([C@@H](C)CO)C(=O)Cc2cc(NC(=O)Nc3ccc(C(F)(F)F)cc3)ccc2O[C@@H]1CN(C)Cc1ccc(C(=O)Nc2ccccc2N)cc1` — outcome as called in the assay?
inactive

// outcome(item) with item = `CN(C)CCOc1ccc(C(=C(CCCl)c2ccccc2)c2ccccc2)cc1.O=C(O)CC(O)(CC(=O)O)C(=O)O`
active

# outcome recorded in this test, key = Cc1ccccc1C(OCCN(C)C)c1ccccc1.O=C(O)CC(O)(CC(=O)O)C(=O)O (stereo not given)
inactive

Field: outcome | Entry: `C[C@H]1CN([C@@H](C)CO)C(=O)Cc2cc(NC(=O)CCC(F)(F)F)ccc2O[C@H]1CN(C)Cc1ccc(C(=O)Nc2ccccc2N)cc1`
active

Test call for this molecule, please: CCCC(=O)Nc1ccc(OCC(O)CNC(C)C)c(C(C)=O)c1.Cl (stereo not given)
inactive

Could you please tell me the result logged for `Cn1cnc(CCNC(=O)C[C@@H]2CC[C@@H]3[C@H](COC[C@H](O)CN3C(=O)Nc3ccc(Cl)cc3)O2)c1` in this assay?
inactive

Please indicate how the test categorized `C[C@@H]1CN([C@@H](C)CO)C(=O)Cc2cc(NS(=O)(=O)c3cccs3)ccc2O[C@H]1CN(C)Cc1ccc(Cl)c(Cl)c1` .
inactive

Query: recorded result category for `Cc1c(-c2ccccc2)n(C[C@@H](O)CN)c2ccccc12` in this test
active

How did this test come out for `C[C@H](CO)N1C[C@H](C)[C@@H](CN(C)Cc2ccc(C(=O)Nc3ccccc3N)cc2)Oc2ccc(NC(=O)CCC(F)(F)F)cc2CC1=O` ?
inactive

GET /call?item= `O=C(/C=C/c1ccccc1)c1ccc(O[C@@H]2O[C@H](CO)[C@@H](O)[C@H](O)[C@H]2O)cc1O` returns the recorded outcome of this test.
inactive

Please state the recorded outcome for this molecule: `C[C@@H]1CCCCO[C@@H](CN(C)C(=O)c2ccncc2)[C@H](C)CN([C@H](C)CO)C(=O)c2cc(NC(=O)NC3CCCCC3)ccc2O1`
inactive

In this assay, the call recorded for `CNC(=O)C(=O)NC[C@H]1CCCN1S(=O)(=O)c1cccs1` was what?
inactive

For `Cc1noc(C)c1S(=O)(=O)Nc1ccc2c(c1)C(=O)N([C@H](C)CO)C[C@@H](C)[C@@H](CN(C)S(=O)(=O)c1cn(C)cn1)OCCCC[C@@H](C)O2` , what call appears in the results of this test?
inactive

Short answer needed: outcome of this test for `C[C@@H]1CN([C@@H](C)CO)C(=O)Cc2cc(NC(=O)Nc3ccc(C(F)(F)F)cc3)ccc2O[C@@H]1CN(C)Cc1ccc(C(=O)Nc2ccccc2N)cc1` ?
active

Which result was noted for this molecule in the test: `C[C@@H]1CN([C@@H](C)CO)C(=O)c2cccc(NS(=O)(=O)c3ccc(F)cc3)c2O[C@@H]1CN(C)CC1CC1`
inactive
